system: recombinant T. b. brucei CTPS (Trypanosoma brucei brucei)
Sequence (Q4GZ95 1-589): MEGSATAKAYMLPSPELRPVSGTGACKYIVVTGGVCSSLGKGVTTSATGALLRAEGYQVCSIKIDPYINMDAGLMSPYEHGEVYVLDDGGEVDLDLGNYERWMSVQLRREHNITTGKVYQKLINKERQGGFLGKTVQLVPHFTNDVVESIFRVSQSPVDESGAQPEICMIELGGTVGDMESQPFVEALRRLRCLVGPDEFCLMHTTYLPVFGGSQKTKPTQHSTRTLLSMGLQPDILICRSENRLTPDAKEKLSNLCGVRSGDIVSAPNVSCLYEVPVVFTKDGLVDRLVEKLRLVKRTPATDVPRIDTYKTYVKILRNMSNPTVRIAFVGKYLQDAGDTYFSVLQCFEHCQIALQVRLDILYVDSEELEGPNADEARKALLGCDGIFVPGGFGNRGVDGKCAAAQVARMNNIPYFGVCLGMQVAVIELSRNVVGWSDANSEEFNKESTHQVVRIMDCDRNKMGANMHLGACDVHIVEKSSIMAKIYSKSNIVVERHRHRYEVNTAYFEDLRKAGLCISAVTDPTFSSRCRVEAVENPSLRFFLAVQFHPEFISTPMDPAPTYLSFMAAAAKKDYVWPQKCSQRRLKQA
assay_method_text: CTPS enzyme assay
Known IC50 of a selection of compounds
Your answer should be a plain number; it is taken to be in µM.

- CCN1N=C(Cl)C[C@@H]1[C@H](N)C(=O)O.Cl (relative stereo) [Compound 8a]: 0.1

Qu. Requested field: IC50. Item: Cl.NCCN1N=C(Cl)CC1C(N)C(=O)O (centres unmarked) [9a,b]
Ans. 0.125

---

system: recombinant T. b. brucei CTPS (Trypanosoma brucei brucei)
assay_method_text: CTPS enzyme assay
measured_metric: IC50

Example entries and their recorded answers appear below.
- N[C@H](C(=O)O)[C@H]1CC(Cl)=NN1Cc1ccccc1 (relative stereo) [Compound 7a]: > 500 µM
- CN(C)C1=NO[C@H]([C@H](N)C(=O)O)C1 [Compound 3]: > 500 µM

Qu. Requested field: IC50. Item: O=C(O)CC1CC(Br)=NO1 (stereo not drawn) [Compound 4]
Ans. > 500 µM
